Values from patent US20040106545A1

experimental target: N-cadherin expressed on transfected 3T3 cells (Examples 2 and 21)
assay info: cell-based or functional assay
Positions of bridges follow the written chain, without caps; N, C: chain ends.
parameter measured: % Inhibition of neurite outgrowth, 250 µg/mL (rat neurons) (%)

Reference set (9 entries):
{"binder": "Ac-CHGVSSC-NH2 (disulfide 1-7 (inferred)) [N-Ac-CHGVSSC-NH2]", "recorded result": 0}
{"binder": "Ac-CSHGVC-NH2 (disulfide 1-6; SMILES CC(=O)N[C@H]1CSSC[C@@H](C(N)=O)NC(=O)[C@H](C(C)C)NC(=O)CNC(=O)[C@H](Cc2c[nH]cn2)NC(=O)[C@H](CO)NC1=O) [N-Ac-CSHGVC-NH2]", "recorded result": 0}
{"binder": "Ac-CAHAVC-NH2 (disulfide 1-6 (inferred)) [N-Ac-CAHAVC-NH2]", "recorded result": 51}
{"binder": "Ac-KHAVD-NH2 (lactam 1-5 (inferred)) [N-Ac-KHAVD-NH2]", "recorded result": 0}
{"binder": "Ac-CRAHAVDC-NH2 (disulfide 1-8 (inferred)) [N-Ac-CRAHAVDC-NH2]", "recorded result": 0}
{"binder": "Ac-CSHAVC-NH2 (disulfide 1-6 (inferred)) [N-Ac-CSHAVC-NH2]", "recorded result": 0}
{"binder": "Ac-CSHAVSSC-NH2 (disulfide 1-8; SMILES CC(=O)N[C@H]1CSSC[C@@H](C(N)=O)NC(=O)[C@H](CO)NC(=O)[C@H](CO)NC(=O)[C@H](C(C)C)NC(=O)[C@H](C)NC(=O)[C@H](Cc2c[nH]cn2)NC(=O)[C@H](CO)NC1=O) [N-Ac-CSHAVSSC-NH2]", "recorded result": 0}
{"binder": "Ac-CHAVSSC-NH2 (disulfide 1-7 (inferred)) [N-Ac-CHAVSSC-NH2]", "recorded result": 0}
{"binder": "Ac-CLRAHAVC-NH2 (disulfide 1-8 (inferred)) [N-Ac-CLRAHAVC-NH2]", "recorded result": 0}

P = H-KHGVD-NH2 (lactam 1-5 (inferred)) [H-KHGVD-NH2]
Q = Ac-CHAVC-NH2 (disulfide 1-5 (inferred)) [N-Ac-CHAVC-NH2]
Challenge: Given the listed records, identify the one among P and Q with higher % Inhibition of neurite outgrowth, 250 µg/mL (rat neurons). Field: selected label. Fill in the label of the entry you choose.
Response given: Q
